This collection of values is drawn from patent US20150183871A1.

Biological target: T1, recombinant purified human RGM A (human, UniProt Q96B86 48-424, limits assumed)
T1 construct: Bought recombinant protein (R&D Systems); also called hRGM A; hRGMA
T1 sequence: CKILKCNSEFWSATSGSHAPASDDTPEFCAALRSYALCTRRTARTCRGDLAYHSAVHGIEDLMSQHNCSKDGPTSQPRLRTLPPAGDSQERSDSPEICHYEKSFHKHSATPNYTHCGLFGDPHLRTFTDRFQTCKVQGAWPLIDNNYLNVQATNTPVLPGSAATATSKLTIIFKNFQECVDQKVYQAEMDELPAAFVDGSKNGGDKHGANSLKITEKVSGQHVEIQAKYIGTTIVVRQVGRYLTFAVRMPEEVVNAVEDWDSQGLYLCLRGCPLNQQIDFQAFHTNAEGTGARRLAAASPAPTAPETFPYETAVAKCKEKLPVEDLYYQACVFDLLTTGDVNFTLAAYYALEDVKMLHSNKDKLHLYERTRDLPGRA
Assay: competition ELISA on coated hRGMA; competitor biotinylated chimeric 5F9
reportedProperty: IC50 (µg/mL)
Reply numerically in µg/mL, unit not repeated.

Here's what some known entries look like.
binder	IC50 (µg/mL)
humanized antibody h5F9.24 (antibody, V domains shown) VH: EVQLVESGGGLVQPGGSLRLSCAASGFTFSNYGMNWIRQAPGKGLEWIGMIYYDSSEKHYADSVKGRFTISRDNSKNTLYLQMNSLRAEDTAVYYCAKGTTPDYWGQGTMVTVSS VL: DVVLTQSPLSLPVTLGQPASISCRSSQSLEYSDGYTFLEWFQQRPGQSPRRLIYEVSNRFSGVPDRFSGSGSGTDFTLKISRVEAEDVGVYYCFQATHDPLTFGQGTKLEIKR	1.32
humanized antibody h5F9.23 (antibody, V domains shown) VH: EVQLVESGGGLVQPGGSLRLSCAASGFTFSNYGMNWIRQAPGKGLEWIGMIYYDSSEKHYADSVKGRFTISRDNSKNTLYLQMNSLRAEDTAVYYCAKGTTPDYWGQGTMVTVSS VL: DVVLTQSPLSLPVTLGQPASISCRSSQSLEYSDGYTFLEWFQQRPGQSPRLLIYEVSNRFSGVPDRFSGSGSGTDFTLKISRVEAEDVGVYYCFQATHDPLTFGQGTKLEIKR	0.55

Alright, here's another binder for you.
Given humanized antibody h5F9.21 (antibody, V domains shown) VH: EVQLVESGGGVVQPGRSLRLSCAASGFTFSNYGMNWIRQAPGKGLEWIGMIYYDSSEKHYADSVKGRFTISRDNSKNTLYLQMNSLRAEDTAVYYCAKGTTPDYWGQGTMVTVSS VL: DVVLTQSPLSLPVTLGQPASISCRSSQSLEYSDGYTFLEWFLQKPGQSPQLLIYEVSNRFSGVPDRFSGSGSGTDFTLKISRVEAEDVGVYYCFQATHDPLTFGQGTKLEIKR , state its recorded IC50. 0.6
